# study.system: B-Raf (Homo sapiens)
# Sequence (P15056 whole entry): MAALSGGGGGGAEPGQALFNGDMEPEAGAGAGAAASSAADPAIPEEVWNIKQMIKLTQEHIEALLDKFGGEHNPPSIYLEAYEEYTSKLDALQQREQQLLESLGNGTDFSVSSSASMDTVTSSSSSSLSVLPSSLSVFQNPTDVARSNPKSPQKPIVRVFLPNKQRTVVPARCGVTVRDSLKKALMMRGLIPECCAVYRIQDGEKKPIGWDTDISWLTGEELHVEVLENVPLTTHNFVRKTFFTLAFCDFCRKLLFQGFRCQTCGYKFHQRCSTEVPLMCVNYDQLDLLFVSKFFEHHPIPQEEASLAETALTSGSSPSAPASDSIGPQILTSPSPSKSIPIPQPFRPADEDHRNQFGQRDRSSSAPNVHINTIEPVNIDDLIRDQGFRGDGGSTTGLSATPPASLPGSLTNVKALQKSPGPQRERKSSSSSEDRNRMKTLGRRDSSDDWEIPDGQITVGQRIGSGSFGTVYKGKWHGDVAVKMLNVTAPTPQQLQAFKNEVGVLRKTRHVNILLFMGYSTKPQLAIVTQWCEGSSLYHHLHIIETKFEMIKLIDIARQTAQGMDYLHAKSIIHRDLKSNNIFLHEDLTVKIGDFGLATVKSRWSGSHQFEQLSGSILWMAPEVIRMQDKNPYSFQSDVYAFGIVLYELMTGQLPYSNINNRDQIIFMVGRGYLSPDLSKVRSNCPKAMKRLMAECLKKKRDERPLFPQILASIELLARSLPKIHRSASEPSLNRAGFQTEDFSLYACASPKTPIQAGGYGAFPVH
# method.notes: B-Raf Accelerated MEK ATPase assay (BRAMA), Method A or B
# Type: biochemical
# condition.details: Method B: final MEK 150 nM, single end point read
pIC50: −log10 of the molar value.
readout.name: pIC50

# query: pIC50 of entry CCc1nc(-c2cccc(CNS(=O)(=O)c3ccccc3)c2)c(-c2ccnc(Nc3ccc(N4CCOCC4)c(F)c3)n2)s1 [Example 34]
> 7.00

Query (molecule): CC(C)c1nc(-c2cccc(NS(=O)(=O)c3cn(C)nc3C(F)(F)F)c2)c(-c2ccnc(Nc3ccc(N4CCOCC4)nc3)n2)s1 [Example 40] ; field requested: pIC50
6.00 to 7.00

Endpoint output: pIC50 of COc1cc(N2CCN(CCS(C)(=O)=O)CC2)c(C)cc1Nc1nccc(-c2sc(C3CCCC3)nc2-c2cccc(NS(=O)(=O)c3c(F)cccc3F)c2)n1 [Example 149] . Value?
6.00 to 7.00

###

Kindly state pIC50 for each of the entries shown.
# System: A375P F11s tumor cells
# method.notes: Cell growth inhibition assay (CellTiter-Glo), A375P F11s
# Format: cell-based, Human
# condition.details: Homo sapiens
pIC50: −log10 of the molar value.

Given the entry CC(C)c1nc(-c2ccc(F)c(NS(=O)(=O)c3c(F)cccc3F)c2)c(-c2ccnc(Nc3ccc(N4CCN(CCF)CC4)c(F)c3)n2)s1 , report its measured pIC50.
6.00 to 7.00

Item CC(C)c1nc(-c2cccc(NS(=O)(=O)c3cccnc3)c2)c(-c2ccnc(Nc3ccc(N4CCOCC4)nc3)n2)s1 has what recorded pIC50?
> 7.00

Tell me the measured pIC50 of CC(C)c1nc(-c2cccc(NS(=O)(=O)c3c(F)cccc3F)c2)c(-c2ccnc(Nc3ccc(N4CCCNCC4)nc3)n2)s1 , please.
> 7.00

Can you share its pIC50? I mean this molecule: Cc1cc(Nc2nccc(-c3sc(C(C)C)nc3-c3ccc(F)c(NS(=O)(=O)c4c(F)cccc4F)c3)n2)ccn1
6.00 to 7.00

Please report the recorded pIC50 for CC(=O)N1CCN(c2ccc(Nc3nccc(-c4oc(C(C)C)nc4-c4cccc(NS(=O)(=O)c5c(F)cccc5F)c4)n3)cn2)CC1 .
6.00 to 7.00

So what's the measured pIC50 for this one? CC(C)c1nc(-c2ccc(F)c(NS(=O)(=O)c3c(F)cccc3F)c2)c(-c2ccnc(Nc3ccc(N4CCN(CCS(C)(=O)=O)CC4)c(F)c3)n2)s1
6.00 to 7.00

Recorded pIC50 of CC(C)c1nc(-c2cccc(NS(=O)(=O)c3c(F)cccc3F)n2)c(-c2ccnc(Nc3ccc(N4CCOCC4)nc3)n2)s1 , please.
6.00 to 7.00

Fill in the blank: the reported pIC50 of COc1ccc(Nc2nccc(-c3sc(C(C)C)nc3-c3cccc(NS(=O)(=O)c4ccccc4)c3)n2)cc1N1CCN(CCC#N)CC1 is ____.
> 7.00

Please report the recorded pIC50 for COCCN1CCN(c2ccc(Nc3nccc(-c4sc(C(C)C)nc4-c4cccc(NS(=O)(=O)c5ccccc5)c4)n3)cn2)CC1 .
> 7.00

###

# study.system: B-Raf (Homo sapiens)
# method.notes: B-Raf Accelerated MEK ATPase assay (BRAMA), Method A or B
# Assay type: biochemical
# condition.details: Method B: final MEK 150 nM, single end point read
Counter-ions that a name gives are not always drawn.
Record form. Attribute: IC50. Fill in for each entry.

Recorded IC50 for CC(C)c1nc(-c2ccc(F)c(NS(=O)(=O)c3c(F)cccc3F)c2)c(-c2ccnc(Nc3ccc(N4CCN5CCOC[C@H]5C4)nc3)n2)s1 with B-Raf (Homo sapiens), please?
< 100 nM

Entry CC(C)c1nc(-c2cccc(NS(=O)(=O)c3cccc(OC(F)F)c3)c2)c(-c2ccnc(Nc3ccc(N4CCOCC4)nc3)n2)s1 , system B-Raf (Homo sapiens): what IC50 was measured?
100 to 1000 nM

# query: IC50 | item CC(=O)N1CCN(c2ccc(Nc3nccc(-c4sc(C(C)C)nc4-c4cccc(NS(=O)(=O)C5CCCCC5)c4)n3)cn2)CC1 | system: B-Raf (Homo sapiens)
< 100 nM

Requested read-out IC50, target or system B-Raf (Homo sapiens), entry CS(=O)(=O)N1CCN(c2ccc(Nc3nccc(-c4oc(N5CCCC5)nc4-c4ccc(F)c(NS(=O)(=O)c5ccccc5F)c4)n3)cn2)CC1
< 100 nM

Item: COc1ccc(S(=O)(=O)Nc2cccc(-c3nc(C(C)C)sc3-c3ccnc(Nc4ccc(N5CCOCC5)nc4)n3)c2)cn1 Test system: B-Raf (Homo sapiens) Read-out: IC50 Value: ?
< 100 nM

Give B-Raf (Homo sapiens) IC50 for CCOc1ccc(Nc2nccc(-c3sc(C(C)C)nc3-c3ccc(F)c(NS(=O)(=O)c4c(F)cccc4F)c3)n2)cc1N1CCN(CCF)CC1
< 100 nM

Notebook entry, B-Raf (Homo sapiens) assay: IC50 of COc1cc(OCCN2CCOCC2)c(C)cc1Nc1nccc(-c2sc(C(C)C)nc2-c2cccc(NS(=O)(=O)c3c(F)cccc3F)c2F)n1 = ?
< 100 nM

Short answer please: IC50, B-Raf (Homo sapiens), entry CC(C)c1nc(-c2cccc(NS(=O)(=O)c3c(F)cccc3F)n2)c(-c2ccnc(Nc3ccc(N4CCOCC4)nc3)n2)s1
< 100 nM

What reported IC50 corresponds to CCNc1nc(-c2cccc(NS(=O)(=O)c3c(F)cccc3F)c2)c(-c2ccnc(Nc3cc(C)c(N4CCN(CCS(C)(=O)=O)CC4)cc3OC)n2)s1 on B-Raf (Homo sapiens)?
< 100 nM

Could you share what IC50 was measured for CC(C)c1nc(-c2ccnc(NS(=O)(=O)c3c(F)cccc3F)c2)c(-c2ccnc(Nc3cnc(N4CCOCC4)c(F)c3)n2)s1 , tested on B-Raf (Homo sapiens)?
< 100 nM

Which measured IC50 belongs to Cc1cc(N2CCOCC2)ncc1Nc1nccc(-c2sc(N3CCCC3)nc2-c2cccc(NS(=O)(=O)c3c(F)cccc3F)c2)n1 , tested on B-Raf (Homo sapiens)?
< 100 nM

Notebook entry, B-Raf (Homo sapiens) assay: IC50 of CC(C)c1nc(-c2cccc(NS(=O)(=O)c3c(F)cccc3F)c2)c(-c2ccnc(Nc3ccc(N4CCN(CCO)CC4)nc3)n2)s1 = ?
< 100 nM

# returns recorded IC50 (system: B-Raf (Homo sapiens)) for CC(C)c1nc(-c2cccc(NS(=O)(=O)c3ccc(C(C)(C)C)cc3)c2)c(-c2ccnc(Nc3ccc(N4CCOCC4)nc3)n2)s1
< 100 nM

Form field - read-out: IC50; system: B-Raf (Homo sapiens); submitted item: CC(C)c1nc(-c2ccc(F)c(NS(=O)(=O)c3c(F)cccc3F)c2)c(-c2ccnc(Nc3ccnc(N4CCOCC4)c3)n2)s1
< 100 nM

Give IC50 (B-Raf (Homo sapiens)) of the following compound: COc1cc(N2CCN(CCS(C)(=O)=O)CC2)c(C)cc1Nc1nccc(-c2sc(C(C)C)nc2-c2cccc(NS(=O)(=O)c3c(F)cccc3F)c2F)n1
< 100 nM

# returns recorded IC50 (system: B-Raf (Homo sapiens)) for COc1ccc(Nc2nccc(-c3sc(C(C)C)nc3-c3cccc(NS(=O)(=O)Cc4ccccc4)c3)n2)cc1N1CCN(CCS(C)(=O)=O)CC1
100 to 1000 nM

Field: IC50 (B-Raf (Homo sapiens)). Entry: CC(C)c1nc(-c2cccc(NS(=O)(=O)c3c(F)cccc3F)c2)c(-c2ccnc(Nc3ccc(N4CCCNCC4)nc3)n2)s1
< 100 nM

Lab note: need IC50 with B-Raf (Homo sapiens) for entry CC(C)c1nc(-c2cccc(NS(=O)(=O)c3c(F)cccc3F)c2)c(-c2ccnc(Nc3ccc(N4CC[C@@H](O)C4)nc3)n2)s1 , please look it up.
< 100 nM

Give the reported IC50 for CC(C)c1nc(-c2ccc(F)c(NS(=O)(=O)c3ccccc3F)c2)c(-c2ccnc(Nc3ccc(N4CCN(CCS(C)(=O)=O)CC4)c(F)c3)n2)s1 [Example 22, hydrochloride] (system: B-Raf (Homo sapiens)).
< 100 nM

// fetch B-Raf (Homo sapiens) IC50 for CC(C)c1nc(-c2cccc(NS(=O)(=O)c3c(F)cccc3F)c2)c(-c2ccnc(Nc3ccc(N4CCN5CCOC[C@H]5C4)nc3)n2)s1
< 100 nM

So what IC50 did CC(C)(F)c1nc(-c2cccc(NS(=O)(=O)c3c(F)cccc3F)c2)c(-c2ccnc(Nc3ccc(N4CCN(CCF)CC4)c(F)c3)n2)s1 get with B-Raf (Homo sapiens)?
100 to 1000 nM

Param readout = IC50; param system = B-Raf (Homo sapiens); param query = CC(=O)N1CCN(c2ccc(Nc3nccc(-c4sc(C(C)C)nc4-c4cccc(NS(=O)(=O)c5cccc(F)c5)c4)n3)cn2)CC1 ; response: value
< 100 nM

Query the reported IC50 for B-Raf (Homo sapiens); item: COc1cc(N2CCN(CCS(C)(=O)=O)CC2)c(C)cc1Nc1nccc(-c2sc(C3CCOCC3)nc2-c2cccc(NS(=O)(=O)c3c(F)cccc3F)c2)n1
< 100 nM

Item COc1cc(C)ccc1S(=O)(=O)Nc1cccc(-c2nc(C(C)C)sc2-c2ccnc(Nc3ccc(N4CCN(C(C)=O)CC4)nc3)n2)c1 with B-Raf (Homo sapiens) - IC50?
100 to 1000 nM
